Cited source for all entries: ChEMBL document CHEMBL1134810

Attribute: Activity
# studySystem: DNA polymerase I, thermostable (Thermus aquaticus) (UniProt P19821)
# Sequence (P19821 whole entry): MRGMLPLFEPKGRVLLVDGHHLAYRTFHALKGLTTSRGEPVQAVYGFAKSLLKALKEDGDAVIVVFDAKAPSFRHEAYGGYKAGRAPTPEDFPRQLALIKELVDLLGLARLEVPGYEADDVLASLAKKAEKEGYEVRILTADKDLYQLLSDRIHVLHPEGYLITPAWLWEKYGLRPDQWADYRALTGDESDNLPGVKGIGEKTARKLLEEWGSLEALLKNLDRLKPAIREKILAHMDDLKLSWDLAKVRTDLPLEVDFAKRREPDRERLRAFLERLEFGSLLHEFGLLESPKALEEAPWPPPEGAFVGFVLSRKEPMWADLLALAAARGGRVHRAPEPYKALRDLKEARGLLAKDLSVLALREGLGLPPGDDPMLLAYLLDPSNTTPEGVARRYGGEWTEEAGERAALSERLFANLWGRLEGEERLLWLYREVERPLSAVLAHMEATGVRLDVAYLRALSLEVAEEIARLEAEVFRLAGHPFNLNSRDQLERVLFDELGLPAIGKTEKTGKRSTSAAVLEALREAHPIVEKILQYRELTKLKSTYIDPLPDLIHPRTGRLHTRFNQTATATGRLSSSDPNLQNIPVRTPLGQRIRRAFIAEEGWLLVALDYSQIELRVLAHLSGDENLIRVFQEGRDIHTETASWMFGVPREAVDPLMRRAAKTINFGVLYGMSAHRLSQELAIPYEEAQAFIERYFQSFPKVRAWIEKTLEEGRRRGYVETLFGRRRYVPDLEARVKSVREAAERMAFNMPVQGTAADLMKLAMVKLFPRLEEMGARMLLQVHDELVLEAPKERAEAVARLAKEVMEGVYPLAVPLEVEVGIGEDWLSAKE
# assay: G4'-DNA binding-dependent Taq polymerase pausing is the ratio of pause/full bands at 20 uM carbocyanine concentration relative to control; expressed as Normalized ratio of G4'-DNA stop product
API note: the answer field is a bare number with no unit suffix.

Q: Please provide the recorded Activity for "CCN1/C(=C/C=C/c2oc3ccccc3[n+]2CC)Oc2ccccc21" , tested on DNA polymerase I, thermostable (Thermus aquaticus) (UniProt P19821).
Ans: 0.9

Q: Please provide the recorded Activity for "CCN1/C(=C/C=C/c2sc3ccccc3[n+]2CC)Sc2ccccc21" , tested on DNA polymerase I, thermostable (Thermus aquaticus) (UniProt P19821).
Ans: 4.4

Q: Please provide the recorded Activity for "CCN1/C(=C/C=C/C=C/C=C/c2sc3ccccc3[n+]2CC)Sc2ccccc21" , tested on DNA polymerase I, thermostable (Thermus aquaticus) (UniProt P19821).
Ans: 1.1

Q: Please provide the recorded Activity for "CCN1/C(=C/C=C/C=C/c2oc3ccccc3[n+]2CC)Oc2ccccc21" , tested on DNA polymerase I, thermostable (Thermus aquaticus) (UniProt P19821).
Ans: 1.6

====

# studySystem: DNA polymerase I, thermostable (Thermus aquaticus) (UniProt P19821)
# assay: Taq polymerase inhibition at […] concentration
# runConditions: 20 uM
Attribute: inhibition
Provide only the numeric value, understood in %.

{"columns": ["entrySmiles", "studySystem", "inhibition / %"],
 "data": [
  ["CCN1C(=CC=CC=Cc2sc3ccccc3[n+]2CC)Sc2ccccc21", "DNA polymerase I, thermostable (Thermus aquaticus) (UniProt P19821)", 91]
]}

Q: For "CCN1/C(=C/C=C/C=C/c2oc3ccccc3[n+]2CC)Oc2ccccc21" , what is its reported inhibition?
Ans: 27

====

Attribute: inhibition
# studySystem: Telomerase reverse transcriptase (Homo sapiens) (UniProt O14746)
# Sequence (O14746 whole entry): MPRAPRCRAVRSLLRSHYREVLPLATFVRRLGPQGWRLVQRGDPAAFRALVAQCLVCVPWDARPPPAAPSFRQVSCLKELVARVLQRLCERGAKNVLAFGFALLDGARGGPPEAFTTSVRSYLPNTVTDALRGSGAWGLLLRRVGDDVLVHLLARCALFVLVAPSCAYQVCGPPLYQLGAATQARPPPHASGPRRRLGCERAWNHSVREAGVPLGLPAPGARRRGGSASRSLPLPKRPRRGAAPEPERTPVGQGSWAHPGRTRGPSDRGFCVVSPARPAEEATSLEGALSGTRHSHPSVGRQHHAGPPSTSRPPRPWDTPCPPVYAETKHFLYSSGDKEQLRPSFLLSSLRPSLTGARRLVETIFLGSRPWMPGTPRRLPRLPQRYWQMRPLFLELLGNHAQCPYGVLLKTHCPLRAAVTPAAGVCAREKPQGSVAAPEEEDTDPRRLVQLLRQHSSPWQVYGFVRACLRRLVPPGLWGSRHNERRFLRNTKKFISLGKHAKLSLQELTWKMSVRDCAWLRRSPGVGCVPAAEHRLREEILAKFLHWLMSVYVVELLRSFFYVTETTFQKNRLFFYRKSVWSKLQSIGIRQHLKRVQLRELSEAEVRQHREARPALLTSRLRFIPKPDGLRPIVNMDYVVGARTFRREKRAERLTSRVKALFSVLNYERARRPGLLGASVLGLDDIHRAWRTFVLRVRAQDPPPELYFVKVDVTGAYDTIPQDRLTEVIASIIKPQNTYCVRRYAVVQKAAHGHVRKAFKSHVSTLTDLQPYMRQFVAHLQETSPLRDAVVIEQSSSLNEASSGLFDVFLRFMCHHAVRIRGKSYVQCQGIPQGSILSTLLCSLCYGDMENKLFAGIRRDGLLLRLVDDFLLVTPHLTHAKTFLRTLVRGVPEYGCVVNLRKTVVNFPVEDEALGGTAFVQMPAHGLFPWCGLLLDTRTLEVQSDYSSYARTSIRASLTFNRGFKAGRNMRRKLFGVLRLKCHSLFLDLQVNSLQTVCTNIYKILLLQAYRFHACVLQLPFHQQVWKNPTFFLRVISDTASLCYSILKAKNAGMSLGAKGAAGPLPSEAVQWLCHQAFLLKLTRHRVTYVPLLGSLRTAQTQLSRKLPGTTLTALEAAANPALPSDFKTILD
# assay: Inhibition of human telomerase activity in S100 HeLa cell extract at […] carbocyanine concentration.
# Assay type: cell-free

Solved cases below.
{"columns": ["entrySmiles", "studySystem", "inhibition"],
 "data": [
  ["CCN1/C(=C/C=C/c2oc3ccccc3[n+]2CC)Oc2ccccc21", "Telomerase reverse transcriptase (Homo sapiens) (UniProt O14746)", "< 10%"],
  ["CCN1/C(=C/C=C/c2sc3ccccc3[n+]2CC)Sc2ccccc21", "Telomerase reverse transcriptase (Homo sapiens) (UniProt O14746)", "35%"],
  ["CCN1C(=CC=CC=Cc2sc3ccccc3[n+]2CC)Sc2ccccc21", "Telomerase reverse transcriptase (Homo sapiens) (UniProt O14746)", "< 10%"],
  ["CCN1/C(=C/C=C/C=C/C=C/c2sc3ccccc3[n+]2CC)Sc2ccccc21", "Telomerase reverse transcriptase (Homo sapiens) (UniProt O14746)", "< 10%"]
]}

Turning now to a further molecule:
Q: For "CCN1/C(=C/C=C/C=C/c2oc3ccccc3[n+]2CC)Oc2ccccc21" , what is its reported inhibition?
Ans: < 10%

====

# studySystem: DNA polymerase I, thermostable (Thermus aquaticus) (UniProt P19821)
# assay: Taq polymerase inhibition at […] concentration
# runConditions: 20 uM
Attribute: inhibition
Could you write the number and then its unit?

{"columns": ["entrySmiles", "inhibition"],
 "data": [
  ["CCN1/C(=C/C=C/c2sc3ccccc3[n+]2CC)Sc2ccccc21", "14%"],
  ["CCN1/C(=C/C=C/C=C/C=C/c2sc3ccccc3[n+]2CC)Sc2ccccc21", "1.1%"]
]}

Turning now to a further compound:
Q: For "CCN1/C(=C/C=C/c2oc3ccccc3[n+]2CC)Oc2ccccc21" , what is its reported inhibition?
Ans: 15%
